Catalogue of EC50 (nM), Erk-phosphorylation, human adipocyte assay readings, one per entry.
Target: human FGF21 receptor (FGF21R): full length human FGFR1c and full length human β-Klotho co-expressed at the … (human, UniProt P11362 22-822; Q86Z14 53-1044)
Assay: cell-based or functional assay
Quantity: EC50 (nM), Erk-phosphorylation, human adipocyte assay

Binder	Output Unit	Val
22H5 (antibody, human IgG2, lambda, V domains shown, fully human monoclonal antibody; full chains H2/L2; also called 22H5 (WT)) VH: QVTLKESGPVLVKPTETLTLTCTVSGFSLSNARMGVSWIRQPPGKALEWLAHIFSNDEKSYSTSLKSRLTISKDTSKSQVVLTMTNMDPVDTATYYCARILLVGAYYYCGMDVWGQGTTVTVSS VL: SYVLTQPPSVSVAPGQTARITCGGNNIGSQSVHWYQQKPGQAPVLVVYDDSDRPSGIPERFSGSNSGNTATLTISRVEAGDEADYYCQVWDNTSDHVVFGGGTKLTVLG	nM	2.27
16H7 variant, heavy chain Deletion of Y107 (antibody, human IgG2, lambda, V domains shown) VH: QVTLKESGPVLVKPTETLTLTCTVSGFSLNNARMGVSWIRQPPGKALEWLAHIFSNDEKSYSTSLKSRLTISKDTSKSQVVLIMTNMDPVDTATYYCARSVVTGGYYDGMDVWGQGTTVTVSS VL: SYVLTQPPSVSVAPGQTARITCGGNNIGSESVHWYQQKPGQAPVLVVYDDSDRPSGIPERFSGSNSGNTATLTISRVEAGDEADYYCQVWDGNSDHVVFGGGTKLTVLG	nM	1.04
16H7 variant, heavy chain E16Q + V24F + I83T + S100I + T119L (antibody, human IgG2, lambda, V domains shown) VH: QVTLKESGPVLVKPTQTLTLTCTFSGFSLNNARMGVSWIRQPPGKALEWLAHIFSNDEKSYSTSLKSRLTISKDTSKSQVVLTMTNMDPVDTATYYCARIVVTGGYYYDGMDVWGQGTLVTVSS VL: SYVLTQPPSVSVAPGQTARITCGGNNIGSESVHWYQQKPGQAPVLVVYDDSDRPSGIPERFSGSNSGNTATLTISRVEAGDEADYYCQVWDGNSDHVVFGGGTKLTVLG	nM	0.24
